tested on: A498; assay: NCI tumour cell line growth inhibition, 48 h
The source made the active and inactive calls. Cut-off read from the data, not from the text of the source: active = GI50 up to about 1.1 µM and inactive = higher.
Outcome field: choose from true for active, false for inactive

COMPOUND: c1cncc(CNCc2cccnc2)c1
GROUP_LABEL: false

What outcome does the record of this test show for "CN(C)CCNC1=CC(=O)c2c(O)ccc(O)c2C1=O" ?
false

Returns: the outcome recorded for "OCCCN=C1CCCCC1" in this assay.
false

* * *

test system: LXFL 529; test: NCI tumour cell line growth inhibition, 48 h
The source made the active and inactive calls. Cut-off read from the data, not from the text of the source: active = GI50 up to about 1.1 µM and inactive = higher.
MEASURED_PROPERTY: GI50

Look up and report measured GI50 for this entry: "Cc1c(C)c2cc3c(=O)ccoc3c(C)c2oc1=O"
80.4 µM (inactive)

* * *

system: SK-MEL-5; assay: NCI tumour cell line growth inhibition, 48 h
Active and inactive are the calls of the source. No stated cut-off is given here; in the data, active = GI50 up to about 1.1 µM and inactive = higher.
# valid calls are active, inactive; nothing else

Please review the entries below; each comes with its answer.
MOLECULE: Clc1ccc(-c2cc(-c3cc(-c4ccc(Cl)cc4)[nH]n3)[nH]n2)cc1
GROUP_LABEL: inactive
--
MOLECULE: O=C(/C=C/c1ccccc1O)c1ccccc1O
GROUP_LABEL: inactive
--
MOLECULE: COC(=O)CCC(C)C1CCC2C3C(C[C@H](OC(C)=O)[C@]12C)[C@@]1(C)CCC2(C[C@H]1C[C@H]3OC(C)=O)OOC1(CC[C@]3(C)C4C[C@H](OC(C)=O)[C@]5(C)C(C(C)CCC(=O)OC)CCC5C4[C@H](OC(C)=O)C[C@@H]3C1)OO2 (stereo partly specified)
GROUP_LABEL: inactive

// param item: "CC(C)(C)C(=O)C(C#N)C(=O)C(C)(C)C" ; yields the recorded call
inactive

I'd appreciate the recorded outcome for CC1=NC(C(=O)O)Cc2c1[nH]c1ccccc21 (stereo unspecified) from this test.
inactive

* * *

system: NCI-H522; test: NCI tumour cell line growth inhibition, 48 h
Calls of active or inactive are those of the source. Cut-off read from the data, not from the text of the source: active = GI50 up to about 1.1 µM and inactive = higher.
Choose one outcome from this list and give only that: active, inactive

Example entries and their recorded answers appear below.
MOLECULE: CCOC(=O)CNC(=O)C(CCC(=O)N(C)O)NC(=O)CCC(N)C(=O)O (stereo not drawn)
GROUP_LABEL: inactive

MOLECULE: CCSC1=CC(Cc2ccc(OC)cc2)N(C(=O)OC)C1 (stereo not drawn)
GROUP_LABEL: inactive

MOLECULE: CO/C=C/C=C(\C#N)C(=O)OC
GROUP_LABEL: inactive

What is the recorded call for this molecule in the test? COc1ccc(OC)c(N2C(=O)/C(=C\c3ccccc3)SC2c2cc(OC)c(OC)c(OC)c2)c1 (stereo not drawn)
inactive

Called result for COc1cc2c(cc1OC)C(OC)N(C)c1c-2ccc2cc3c(cc12)OCO3 (stereo not drawn)
active

* * *

test system: 786-0; test: NCI tumour cell line growth inhibition, 48 h
The source made the active and inactive calls. Rule as the data show it: active = GI50 up to about 1.1 µM and inactive = higher.
In this exercise, the only acceptable responses are active, inactive

MOLECULE: O=C1C2C3C=C4c5ccccc5N(c5ccccc5)C4(C2C(=O)N1c1ccc(Br)cc1)[C@H]1C(=O)N(c2ccc(Br)cc2)C(=O)[C@@H]31 (some centres not stated)
GROUP_LABEL: inactive

MOLECULE: CC[S+]([O-])c1c2cc(OC)ccc2nc2ccc(OC)cc12 (configuration not stated)
GROUP_LABEL: inactive

MOLECULE: CN(C)CC1CCC/C(=C\c2ccc(OC(=O)/C=C/c3ccccc3)cc2)C1=O (configuration not stated)
GROUP_LABEL: active

MOLECULE: NCCC(N)C(=O)O (configuration not stated)
GROUP_LABEL: inactive

MOLECULE: COc1ccc(NC(=O)C2=C(SC)C(C#N)C(=O)N=C2N)cc1 (configuration not stated)
GROUP_LABEL: inactive

For the next question, use this molecule.
In this assay, the call recorded for "CN(C)Nc1cc(=O)[nH]c(=O)[nH]1" was what?
inactive

The reported measurements were obtained from ChEMBL document CHEMBL1201862.
